- system: JAK2 (catalytic domain, His-tag) (Homo sapiens)
- Construct: All four purified enzymes contain only the catalytic domain; His (N); purchased Carna Biosciences, Inc; host or cells: baculovirus expression system
- Sequence (O60674 849-1124 limits assumed): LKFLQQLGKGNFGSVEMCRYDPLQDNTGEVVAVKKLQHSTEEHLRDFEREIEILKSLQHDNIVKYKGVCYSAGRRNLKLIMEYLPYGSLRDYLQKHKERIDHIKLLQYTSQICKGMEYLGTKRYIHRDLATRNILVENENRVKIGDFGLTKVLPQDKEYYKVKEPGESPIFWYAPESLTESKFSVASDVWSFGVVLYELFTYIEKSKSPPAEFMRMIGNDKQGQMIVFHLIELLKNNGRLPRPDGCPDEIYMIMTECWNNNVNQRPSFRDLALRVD
- protocol: JAK kinase assay (HTRF, phosphorylation of TK substrate-biotin), JAK2
- Type: biochemical
- test_parameters: ATP at Km (4 μM); read-out: JAK2 kinase inhibitory activity (EC50 indicator)

[
  {
    "compound": "CCOC(=O)NC(=S)N1[C@@H]2CC[C@H]1CN(c1ncnc3[nH]ccc13)C2 [Example 29]",
    "EC50": "100 to 500 nM"
  },
  {
    "compound": "CS(=O)(=O)c1cccc(C(=O)N2C3CCC2CN(c2ncnc4[nH]ccc24)C3)c1 [Example 135]",
    "EC50": "< 100 nM"
  },
  {
    "compound": "Cc1c(C(=O)N2C3CCC2CN(c2ncnc4[nH]ccc24)C3)[nH]c2ccc(F)cc12 [Example 201]",
    "EC50": "100 to 500 nM"
  },
  {
    "compound": "NS(=O)(=O)c1ccc(C(=O)C(=O)N2CCN(c3ncnc4[nH]ccc34)CC23CC3)cc1 [Example 63]",
    "EC50": "< 100 nM"
  }
]
